# methodSummary: gradient 5% acetonitrile 3 min, to 50% in 2 min, to 85% in 15 min, held 3 min, 100 µL/min
# conditionParameters: column: Zorbax Extend-C18 2.1 x 50 mm; eluents: water / acetonitrile, 0.1% formic acid
property: RP-LC retention time (s)

> print(dat)
                                    molecule  assayresult
 1  Cc1ccc(NC(=O)c2cccc([N+](=O)[O-])c2O)c([N+](=O)[O-])c1          982
 2  Cc1ccc2c(Nc3ccc4c(c3)OCO4)c(C(=O)N3CCCC3)cnc2n1          591
 3  O=C(CN1C(=O)CCCc2cc(S(=O)(=O)N3CCCCC3)ccc21)N1CCc2ccccc2C1          922
 4  Cc1ccc(Cc2nc(-c3cccc(-c4ccn[nH]4)c3)no2)cc1          999
 5  Cc1ccc(NC(=O)CC2COc3ccccc3NC2=O)cc1F (stereo not given)          769
 6  Cc1cccc(NC(=O)N(C)CCc2noc(COc3ccccc3F)n2)c1C          823
 7             Cc1cccc(-c2nc(Cn3ccnc3)no2)c1          600
 8         Cc1nc(C)c(C(=O)Nc2ccc(C)c(F)c2)s1          860
 9  COc1ccc(NC(=O)Cn2nc(N3CCSCC3)c3ccccc3c2=O)cc1         1180
10  COc1ccc(Cl)cc1S(=O)(=O)N1CCCC(C(=O)NCc2ccccn2)C1 (stereo not given)          660

* * *

// RP-LC retention time lookup, one value per entry
# methodSummary: gradient 5% acetonitrile 3 min, to 50% in 2 min, to 85% in 15 min, held 3 min, 100 µL/min
# conditionParameters: column: Zorbax Extend-C18 2.1 x 50 mm; eluents: water / acetonitrile, 0.1% formic acid
property: RP-LC retention time (s)

> print(dat)
                                    compound              property  assayresult
 1  Cc1ccc(S(=O)(=O)CCc2noc(-c3ccc4c(c3)OCO4)n2)cc1  RP-LC retention time          931
 2  CCn1cc2c3c(cccc31)CN(C(=O)Nc1ccc(C)cc1)CC2  RP-LC retention time          978
 3  CCn1cc(C(=O)N2CCC(c3nnc(-c4ccco4)o3)CC2)c(=O)c2ccc(C)nc21  RP-LC retention time          654
 4  COc1cccc(CNC(=O)C2(C)CCCN(C(=O)Nc3ccc4c(c3)OCCO4)C2)c1 (centres undefined)  RP-LC retention time          802
 5  Cc1cc2n(n1)CCCN2Cc1ccc(C(=O)NCCCN2CCCC2=O)cc1  RP-LC retention time          587
 6  COC1CCC12CCN(C(=O)c1ccco1)CC2 (centres undefined)  RP-LC retention time          735
 7  CN1CCOc2ccc(NC(=O)C3CCN(S(C)(=O)=O)CC3)cc2C1=O  RP-LC retention time          590
 8  Cc1noc([C@@H]2CN(C(=O)c3cc(C)n(Cc4ccco4)c3C)C[C@H]2C(N)=O)n1  RP-LC retention time          686
 9  COc1ccc(-c2nc3cnccn3c2Nc2ccc(C(=O)O)cc2)cc1  RP-LC retention time          662
10  Cc1ccc(NC(=O)C2CCN(C(=O)c3ncn4c3COC(c3ccc(F)cc3)C4)CC2)cc1 (centres undefined)  RP-LC retention time          804
11         Clc1ccc(Cl)c(-c2ccc(CNC3CC3)o2)c1  RP-LC retention time          698
12  Cc1cc(N2CCN(C(=O)Nc3cccc(C(F)(F)F)c3)CC2)nc(N2CCCCC2)n1  RP-LC retention time          789
13  CCCN1CCN(c2cc(C(=O)O)c3cc(NS(=O)(=O)c4cc(F)ccc4F)ccc3n2)CC1  RP-LC retention time          618
14  CC(C)CCN1C(=O)C2CCCN2C(=O)c2ccccc21 (centres undefined)  RP-LC retention time          797
15  CC[C@@H](Nc1c(Nc2cccc(C(=O)N(C)C)c2O)c(=O)c1=O)c1cc(C(C)C)co1  RP-LC retention time          772
16  CCOC(=O)C1CCCN(C(=O)c2ccc(SCCN3CCOCC3)nc2)C1 (centres undefined)  RP-LC retention time          616
17  CCCSCCCNc1nc(-c2nnc(-c3ccccc3)o2)nc2ccccc12  RP-LC retention time         1100
18  Cc1ccc(-c2ccc3nnc(CCC(=O)NC4CCC(C)CC4)n3n2)cc1C (centres undefined)  RP-LC retention time          854
19  O=c1n(Cc2cc(F)cc(F)c2)nc2c(S(=O)(=O)N3CCc4ccccc4C3)cccn12  RP-LC retention time          966

* * *

# methodSummary: gradient 5% acetonitrile 3 min, to 50% in 2 min, to 85% in 15 min, held 3 min, 100 µL/min
# conditionParameters: column: Zorbax Extend-C18 2.1 x 50 mm; eluents: water / acetonitrile, 0.1% formic acid
# RP-LC retention time per entry
property: RP-LC retention time

> print(dat)
                                 smilesrepr  assayresult
1  O=C(c1cnn(-c2ccc([N+](=O)[O-])cc2)c1C1CCNCC1)N1CCN(c2ccccn2)CC1        563 s
2  CCc1cccc(C)c1Nc1c(-c2ccc(C(=O)OC)cc2)nc2cnccn12        982 s
3  O=C(NCc1ccco1)c1ccc2c(c1)CCCN2S(=O)(=O)c1ccccc1        914 s
4       CCOC(=O)CNC(=O)NCC(=O)N1CCc2ccccc21        658 s
5  CN1c2ccccc2C(=O)NC12CCN(C(=O)c1ccccc1F)CC2        712 s

* * *

# methodSummary: gradient 5% acetonitrile 3 min, to 50% in 2 min, to 85% in 15 min, held 3 min, 100 µL/min
# conditionParameters: column: Zorbax Extend-C18 2.1 x 50 mm; eluents: water / acetonitrile, 0.1% formic acid
Reported RP-LC retention time is given for each of the following compounds.
property: RP-LC retention time (s)

> print(dat)
                                    compound  assayresult
 1          O=C(Nc1nnc(SCCN2CCOCC2)s1)C1CCC1          544
 2  O=c1c2cc(-c3ccccc3)nn2ccn1Cc1noc(CN2CCOCC2)n1          681
 3  COc1ccccc1CCC(=O)N1C[C@@H]2C[C@H](NC(=O)c3ccccc3)[C@H]1C2          816
 4    CCn1cc(CCNS(=O)(=O)c2ccccc2F)c2cccnc21          745
 5  CCN1CCC(N(Cc2ccc3c(c2)OCO3)C(=O)Nc2ccccc2)CC1          650
 6       O=C(Nc1nc2c(s1)CCC2)c1ccc2c(c1)OCO2          812
 7  CCOC(=O)CNC(=O)CSc1nnc(NC(=O)c2nc3ccccc3s2)s1          736
 8  CCOc1ccc(NS(=O)(=O)c2ccc3c(c2)C(=O)N(C)c2ncccc2O3)cc1          907
 9  Brc1ccc(-c2nnc(Cc3nc(-c4ccccc4)no3)o2)cc1         1100
10          Cc1c(F)cccc1NC(=O)Nc1ccc2nncn2c1          660
11  Cc1cccc(-c2nc(C3CCN(S(=O)(=O)c4ccccc4F)CC3)no2)c1         1160
12  O=C(NC1CCCCC1)C1CCc2sc(C(=O)N3CCCCC3)cc2C1 (stereo unspecified)          891
13  Cc1ccc2c(c1)c1c(n2CC(O)Cn2nc(C)cc2C)CCCC1 (stereo unspecified)         1050
14  O=C(C1CCOC1)N1CCCn2nc(-c3ccc(Cl)cc3)cc2C1 (stereo unspecified)          767
15  CCCn1c(=O)c(C)nc2cc(-c3noc(-c4cc(OC)c(OC)c(OC)c4)n3)ccc21         1110
16        CCc1nc2nccc(-c3ccc(OC)c(OC)c3)n2n1          702
17  CCCCN(CCCC)C(=O)C1CCN(S(=O)(=O)c2ccc3c(c2)CCCC(=O)N3)CC1          905
18  c1ccc(-c2nc(-c3cnccn3)no2)c(OC2CCNC2)c1 (stereo unspecified)          615
19                  CC(=O)Nc1cccc(NC(C)=O)n1          609
20  Cc1cc(C)cc(NC(=O)N2CC(n3cnnc3-c3ccccc3)C2)c1          722
21    Nc1cc(C2CCN(C(=O)Nc3ccc(Br)cc3)CC2)no1          732
